FYI, the data here is from ChEMBL document CHEMBL3425433.

- tested_target: UniProt Q8IXJ6
- test_summary: Inhibition of His-tagged human recombinant SIRT2 expressed in Escherichia coli using Cbz-Lys(Ac)-AMC as substrate by fluorescence assay
// values below are reported pIC50
Lab note — pIC50 values are minus log10 of concentrations in M.

Record excerpt, results attached:
- compound: "Cn1c(-c2n[nH]c3c2CCCC3C(N)=O)cc2ccccc21 (racemic)"
  endpoint_label: "pIC50"
  meas_value: 5.11
- compound: "NC(=O)C1CCCc2c(-c3ccc(Cl)c(Cl)c3)n[nH]c21 (racemic)"
  endpoint_label: "pIC50"
  meas_value: 4.83
- compound: "NC(=O)C1CCCCc2c(-c3ccc(Cl)cc3)n[nH]c21 (racemic)"
  endpoint_label: "pIC50"
  meas_value: 5.17
- compound: "NC(=O)C1CCCc2c(-c3cc4ccccc4s3)n[nH]c21 (racemic)"
  endpoint_label: "pIC50"
  meas_value: 5.28

Record NC(=O)C1CCCc2c(-c3nc4ccccc4s3)n[nH]c21 (racemic) . Reported pIC50: 5.08

Noted for NC(=O)C1CCCc2c(-c3cc4ccccc4o3)n[nH]c21 (racemic) : its pIC50 reads 5.05

Documented pIC50 of CC1(C)Cc2c(-c3ccc(Cl)cc3)n[nH]c2C(C(N)=O)C1 (racemic) : 5.77

###

- tested_target: Protein deacetylase HDAC6 (Homo sapiens)
- Sequence (whole entry): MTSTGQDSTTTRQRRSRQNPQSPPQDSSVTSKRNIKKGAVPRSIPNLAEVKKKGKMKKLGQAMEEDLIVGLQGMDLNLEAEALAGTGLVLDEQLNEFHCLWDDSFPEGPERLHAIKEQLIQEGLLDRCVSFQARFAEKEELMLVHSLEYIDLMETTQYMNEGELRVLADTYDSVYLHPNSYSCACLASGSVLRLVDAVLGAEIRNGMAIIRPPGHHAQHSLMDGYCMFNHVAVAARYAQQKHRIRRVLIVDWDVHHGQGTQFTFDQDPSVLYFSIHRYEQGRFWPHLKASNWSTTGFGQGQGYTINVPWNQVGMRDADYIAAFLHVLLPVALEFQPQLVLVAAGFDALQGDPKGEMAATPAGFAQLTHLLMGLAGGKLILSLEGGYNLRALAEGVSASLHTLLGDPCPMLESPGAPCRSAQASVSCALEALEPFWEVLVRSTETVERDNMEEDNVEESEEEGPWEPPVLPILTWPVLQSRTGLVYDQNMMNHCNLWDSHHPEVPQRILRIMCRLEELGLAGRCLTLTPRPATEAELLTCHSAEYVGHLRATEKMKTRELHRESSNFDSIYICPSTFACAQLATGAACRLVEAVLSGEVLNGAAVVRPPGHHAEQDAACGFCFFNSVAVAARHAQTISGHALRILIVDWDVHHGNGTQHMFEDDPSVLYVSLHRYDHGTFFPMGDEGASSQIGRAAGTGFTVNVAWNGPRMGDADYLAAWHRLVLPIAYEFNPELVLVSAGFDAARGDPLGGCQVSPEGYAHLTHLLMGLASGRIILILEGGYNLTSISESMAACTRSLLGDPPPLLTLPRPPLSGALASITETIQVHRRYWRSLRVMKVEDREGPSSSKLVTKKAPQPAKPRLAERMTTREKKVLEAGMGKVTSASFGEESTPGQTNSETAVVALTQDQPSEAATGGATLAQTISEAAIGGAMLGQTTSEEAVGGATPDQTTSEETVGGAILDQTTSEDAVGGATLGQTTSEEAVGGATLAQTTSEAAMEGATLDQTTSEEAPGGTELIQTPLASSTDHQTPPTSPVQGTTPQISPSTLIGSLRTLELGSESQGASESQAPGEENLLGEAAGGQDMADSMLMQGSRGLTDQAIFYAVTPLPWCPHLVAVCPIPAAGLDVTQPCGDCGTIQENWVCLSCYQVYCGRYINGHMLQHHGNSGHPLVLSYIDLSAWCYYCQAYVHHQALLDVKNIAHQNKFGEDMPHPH
- test_summary: Inhibition of HDAC6 (unknown origin)
Calls of active or inactive are those of the source. The rule behind the calls is not given here.
endpoint_label: inhibition

- molecule: "NC(=O)C1CCCc2c(-c3ccc(Cl)cc3Cl)n[nH]c21 (racemic)"
  inhibition: "inactive"
- molecule: "NC(=O)C1CCCc2c(-c3ccc(Cl)c(F)c3)n[nH]c21 (racemic)"
  inhibition: "inactive"
- molecule: "NC(=O)C1CCCCc2c(-c3ccc(Cl)cc3)n[nH]c21 (racemic)"
  inhibition: "inactive"
- molecule: "CC1(C)Cc2c(-c3cc4ccccc4s3)n[nH]c2C(C(N)=O)C1 (racemic)"
  inhibition: "inactive"

// NC(=O)C1CCCc2c(-c3cccc(Cl)c3)n[nH]c21 (racemic) : inhibition value = inactive

Lab note: measured inhibition of NC(=O)C1CCCc2c(-c3nc4ccccc4s3)n[nH]c21 (racemic) was inactive

###

- tested_target: UniProt Q96EB6
- test_summary: Inhibition of His-tagged human recombinant SIRT1 expressed in Escherichia coli at 20 uM using Cbz-Lys(Ac)-AMC as substrate by fluorescence assay
Items are presented alongside their recorded inhibition.
Give the value in % but do not write % after it.

- compound: "CC1(C)Cc2c(-c3ccc(Br)cc3)n[nH]c2C(C(N)=O)C1 (racemic)"
  tested_target: "UniProt Q96EB6"
  units: "%"
  inhibition: 56

Next item in the queue.
The compound listed as CC1(C)Cc2c(-c3cc4ccccc4s3)n[nH]c2C(C(N)=O)C1 (racemic) shows inhibition equal to 53

###

- tested_target: NAD-dependent protein deacetylase sirtuin-1 (Homo sapiens, UniProt Q96EB6)
- Sequence (Q96EB6 whole entry): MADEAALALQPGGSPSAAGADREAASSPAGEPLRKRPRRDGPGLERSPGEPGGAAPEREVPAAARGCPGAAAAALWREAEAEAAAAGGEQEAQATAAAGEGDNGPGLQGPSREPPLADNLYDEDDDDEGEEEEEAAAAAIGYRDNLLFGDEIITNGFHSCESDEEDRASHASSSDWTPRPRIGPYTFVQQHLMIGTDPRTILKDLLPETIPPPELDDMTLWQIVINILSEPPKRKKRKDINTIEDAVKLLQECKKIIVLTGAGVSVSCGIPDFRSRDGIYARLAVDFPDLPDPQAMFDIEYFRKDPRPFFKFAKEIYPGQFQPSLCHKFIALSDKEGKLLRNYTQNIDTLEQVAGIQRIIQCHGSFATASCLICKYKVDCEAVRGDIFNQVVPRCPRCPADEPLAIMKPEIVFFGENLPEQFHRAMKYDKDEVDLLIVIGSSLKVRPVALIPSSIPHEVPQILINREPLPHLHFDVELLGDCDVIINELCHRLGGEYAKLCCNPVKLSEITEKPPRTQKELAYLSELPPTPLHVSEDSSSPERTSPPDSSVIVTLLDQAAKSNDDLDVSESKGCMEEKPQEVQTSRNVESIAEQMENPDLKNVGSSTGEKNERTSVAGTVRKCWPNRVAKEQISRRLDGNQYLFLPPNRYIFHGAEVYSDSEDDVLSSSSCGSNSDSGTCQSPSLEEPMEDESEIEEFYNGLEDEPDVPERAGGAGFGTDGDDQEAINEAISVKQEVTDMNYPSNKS
- test_summary: Inhibition of His-tagged human recombinant SIRT1 expressed in Escherichia coli using Cbz-Lys(Ac)-AMC as substrate by fluorescence assay
endpoint_label: pIC50
Scale: negative log10 of molar concentration, which is what pIC50 denotes.

Here's what some known entries look like.
- compound: "NC(=O)C1CCCc2c(-c3ccc(Cl)c(Cl)c3)n[nH]c21 (racemic)"
  pIC50: 5.92
- compound: "NC(=O)C1CCCc2c(-c3cc4ccccc4o3)n[nH]c21 (racemic)"
  pIC50: 5.51
- compound: "NC(=O)C1CCCc2c(-c3nc4ccccc4s3)n[nH]c21 (racemic)"
  pIC50: 5.66
- compound: "NC(=O)C1CCCCc2c(-c3ccc(Cl)cc3)n[nH]c21 (racemic)"
  pIC50: 5.68

Entry under test: NC(=O)C1CCCc2c(-c3ccc(Cl)c(F)c3)n[nH]c21 (racemic) . Its pIC50 was 5.59

###

# bioavailability values compiled below
- test_summary: Oral bioavailability in rat
- Format: ADME, organism-based
- measurement_conditions: in vivo
Reply with just the number (in %).

- compound: "NC(=O)C1CCCc2c(-c3ccc(Cl)cc3)n[nH]c21 (racemic)"
  endpoint_label: "bioavailability"
  meas_value: 20

Would you kindly look at the next entry?
Reported bioavailability of CC1(C)Cc2c(-c3ccc(Cl)cc3)n[nH]c2C(C(N)=O)C1 (racemic) : 23

###

inhibition: recorded values
- tested_target: NAD-dependent protein deacetylase sirtuin-2 (Homo sapiens)
- Sequence (whole entry): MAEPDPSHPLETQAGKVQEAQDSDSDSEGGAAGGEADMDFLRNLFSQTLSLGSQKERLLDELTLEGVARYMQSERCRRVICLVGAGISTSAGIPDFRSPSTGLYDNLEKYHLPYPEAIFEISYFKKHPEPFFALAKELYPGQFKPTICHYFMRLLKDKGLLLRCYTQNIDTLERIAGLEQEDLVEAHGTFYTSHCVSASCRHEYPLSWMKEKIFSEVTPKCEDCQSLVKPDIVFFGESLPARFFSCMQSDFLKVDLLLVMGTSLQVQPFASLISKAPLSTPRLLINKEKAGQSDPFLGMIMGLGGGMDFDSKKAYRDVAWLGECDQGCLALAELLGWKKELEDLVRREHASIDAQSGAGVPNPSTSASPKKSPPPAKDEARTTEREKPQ
- test_summary: Inhibition of His-tagged human recombinant SIRT2 expressed in Escherichia coli at 20 uM using Cbz-Lys(Ac)-AMC as substrate by fluorescence assay

Recorded inhibition, per entry:
- compound: "COc1ccc(-c2n[nH]c3c2CCCC3C(N)=O)cc1 (racemic)"
  inhibition: "< 20%"
- compound: "CC1(C)Cc2c(-c3cc4ccccc4s3)n[nH]c2C(C(N)=O)C1 (racemic)"
  inhibition: "67%"
- compound: "NC(=O)C1CCCc2c(-c3ccc(Cl)cc3Cl)n[nH]c21 (racemic)"
  inhibition: "< 20%"
- compound: "Cn1c(-c2n[nH]c3c2CC(C)(C)CC3C(N)=O)cc2ccccc21 (racemic)"
  inhibition: "< 20%"

Now take the following compound into account.
Param item: NC(=O)C1CCCc2c(-c3cc(Br)cs3)n[nH]c21 (racemic) ; param system: NAD-dependent protein deacetylase sirtuin-2 (Homo sapiens); output inhibition: < 20%

###

- test_summary: Half life in rat
- Assay type: ADME, organism-based
- measurement_conditions: in vivo
endpoint_label: half-life

- molecule: "NC(=O)C1CCCc2c(-c3ccc(Cl)cc3)n[nH]c21 (racemic)"
  endpoint_label: "half-life"
  meas_value: "1.1 h"

# ---- query molecule ----
The molecule identified as CC1(C)Cc2c(-c3ccc(Cl)cc3)n[nH]c2C(C(N)=O)C1 (racemic) registered its half-life at 5.1 h
